Measured values drawn from ChEMBL document CHEMBL1201862 for this set.

System: ACHN
Assay: NCI tumour cell line growth inhibition, 48 h
Activity calls are given as the source filed them. No stated cut-off is given here; in the data, active = GI50 up to about 1.1 µM and inactive = higher.
Kindly supply the reported GI50 values for the records listed here.

Item COCN1CCN=c2c1c1c3c(c4ccccc4n23)CCC1 has what recorded GI50?
> 100 µM (inactive)

Item N#Cc1c(-c2ccc([N+](=O)[O-])cc2)cc(-c2ccc(Nc3ccnc4cc(Cl)ccc34)cc2)[nH]c1=O has what recorded GI50?
> 100 µM (inactive)

Item O=C1C=C/C(=N/c2cccc3c(/N=C4/C=CC(=O)O4)cccc23)O1 has what recorded GI50?
29 µM (inactive)

Item NC(=S)SCCC(=O)O has what recorded GI50?
> 100 µM (inactive)

Item Cc1cc2nc(C#N)c(N3CCN(c4ccc([N+](=O)[O-])cc4)CC3)nc2cc1C has what recorded GI50?
> 71.3 µM (inactive)

Item O=C1C(N2C(=O)c3ccccc3C2=O)CN1C(COCc1ccccc1)c1ccc(OCc2ccccc2)cc1 (stereo unspecified) has what recorded GI50?
> 100 µM (inactive)

Item S=C1Nc2ccccc2SC1c1ccccc1 (stereo unspecified) has what recorded GI50?
69.3 µM (inactive)

Item COC(=O)CCC(=O)CC(=O)C(=O)Nc1c(Cl)cc([N+](=O)[O-])cc1Cl has what recorded GI50?
> 100 µM (inactive)

Item CC(=O)c1c[nH]cc1CO has what recorded GI50?
> 10 µM (inactive)

Item CC(C)(C)OC(=O)NCCCCC(N)C(N)=O (stereo unspecified) has what recorded GI50?
> 100 µM (inactive)

Item CCOC(=O)C(C)c1nc2cc(F)c(F)cc2[nH]c1=O (stereo unspecified) has what recorded GI50?
> 100 µM (inactive)

Item O=[N+]([O-])c1ccc2c(c1)nc(Cc1ccc(Cl)cc1)n2C[C@@H]1CCCN2CCCCC12 (stereo partly specified) has what recorded GI50?
13.4 µM (inactive)

Item CCOc1ccc(/N=N/c2ccc3oc(=O)c(/C(C)=N/NC(=O)CC(=O)Nc4cccc(OC)c4)cc3c2)cc1 has what recorded GI50?
21.3 µM (inactive)

Item CC1(C)OCC(CO)(Nc2nc(N3CC3)nc(N3CC3)n2)CO1 has what recorded GI50?
1.42 µM (inactive)

Item C=CCN(c1cc(OC)c(NC(C)=O)cc1[N+](=O)[O-])S(C)(=O)=O has what recorded GI50?
> 100 µM (inactive)

Item C/C=C\C(CC(=O)NCCc1c[nH]c2ccccc12)CC(=O)OC (stereo unspecified) has what recorded GI50?
> 100 µM (inactive)

Item COc1ccc(C(O)CNC(=O)c2ccccc2)cc1 (stereo unspecified) has what recorded GI50?
> 100 µM (inactive)

Item N#CCC1(c2ccc(Cl)cc2)NC(=O)c2ccccc21 (stereo unspecified) has what recorded GI50?
> 100 µM (inactive)

Item CC1=CC[C@@]2(CO)[C@@H]([C@@H]1C)[C@H]1CC[C@@H]3[C@@]4(C)CC[C@H](O)C(C)(C)[C@@H]4CC[C@@]3(C)[C@]1(C)C[C@@H]2O has what recorded GI50?
20.7 µM (inactive)

Item Cc1ccccc1C(C#N)/C(=N/NC(=O)c1cc2ccccc2cc1O)C(=O)Nc1cccc(Cl)c1 (stereo unspecified) has what recorded GI50?
16.4 µM (inactive)

Item C=C1C2=C(CCCC2)C(=O)OC12CCCCC2 has what recorded GI50?
40.9 µM (inactive)
